Cited source for all entries: patent US20240101544A1

Molecular target: UniProt:Q9NXS2
Assay: Inhibition of Cellular QPCTL Activity - Imaging Assay, CC2C6 anti-CD47 staining of DLD-1 cells
Type: cell-based
Conditions: 72 hours, CC2C6 anti-CD47 high-content imaging
Sequence (Q9NXS2 whole entry): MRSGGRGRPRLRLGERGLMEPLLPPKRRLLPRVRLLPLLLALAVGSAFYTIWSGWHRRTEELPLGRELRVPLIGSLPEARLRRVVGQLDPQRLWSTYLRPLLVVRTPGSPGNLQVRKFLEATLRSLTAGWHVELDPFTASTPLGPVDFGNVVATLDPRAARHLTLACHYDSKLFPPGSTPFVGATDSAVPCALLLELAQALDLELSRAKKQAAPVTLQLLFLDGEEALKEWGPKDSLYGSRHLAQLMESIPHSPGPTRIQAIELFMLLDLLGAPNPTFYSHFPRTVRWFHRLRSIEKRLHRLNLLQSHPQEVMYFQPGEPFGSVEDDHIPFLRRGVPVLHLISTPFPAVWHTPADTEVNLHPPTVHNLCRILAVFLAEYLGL
pIC50: −log10 of the molar value.
pIC50 values for the compounds below.

GIVEN SMILES: Cn1ccc(-c2ccc(-c3ccc(O)c(C=O)c3)c(N3CCC(c4nncn4C)CC3)c2C#N)n1
pIC50: 6.00 to 7.00

GIVEN SMILES: COCCOc1ccc(-c2ccc(F)nc2)c(N2CCC(c3nncn3C)CC2)c1C#N
pIC50: > 7.00

GIVEN SMILES: Cn1cnnc1C1CCN(c2c(C#N)cccc2-c2cnc3nccn3c2)CC1
pIC50: 6.00 to 7.00

GIVEN SMILES: Cn1cnnc1C1CCN(c2c(C#N)cccc2-c2cncc(O)c2)CC1
pIC50: > 7.00

GIVEN SMILES: Cn1cc(-c2ccc(-c3ccc(F)nc3)c(N3CCC(c4nncn4C)CC3)c2C#N)cn1
pIC50: > 7.00

GIVEN SMILES: Cn1cnnc1N1CCN(c2c(C#N)cccc2-c2ccc(F)nc2)CC1
pIC50: > 7.00

GIVEN SMILES: Cn1cnnc1C1CCN(c2c(-c3ccc(F)nc3)ccc(C3CC3)c2C#N)CC1
pIC50: > 7.00

GIVEN SMILES: Cn1cnnc1C1CCN(c2c(-c3ccc(F)nc3)ccc(N3CCOCC3)c2C#N)CC1
pIC50: > 7.00

GIVEN SMILES: Cn1cnnc1C1CCN(c2c(C#N)cccc2-c2ccc(O)c(C=O)c2)CC1
pIC50: > 7.00

GIVEN SMILES: Cn1cnnc1C1CCN(c2c(-c3ccc(F)nc3)ccc(OCC3CC3)c2C#N)CC1
pIC50: > 7.00

----------
Molecular target: QPCTL (Homo sapiens (Human), UniProt Q9NXS2)
Test: Inhibition of Cellular QPCTL Activity - Imaging Assay, CC2C6 anti-CD47 staining of DLD-1 cells
Format: cell-based
Conditions: 72 hours, CC2C6 anti-CD47 high-content imaging
IC50 values for the compounds below.

GIVEN SMILES: Cn1cnnc1C1CCN(c2c(-c3ccc(F)nc3)ccc(NS(C)(=O)=O)c2C#N)CC1
IC50: > 10000 nM
--
GIVEN SMILES: COc1ccncc1-c1ccc(OC)c(C#N)c1N1CCC(c2nncn2C)CC1
IC50: 1000 to 10000 nM
--
GIVEN SMILES: Cc1cc(-c2cccc(C#N)c2N2CCC(c3nncn3C)CC2)cnc1F
IC50: < 100 nM
--
GIVEN SMILES: Cn1cnnc1C1CCN(c2c(-c3ccc(F)nc3)ccc(C3COC3)c2C#N)CC1
IC50: < 100 nM

----------
Molecular target: QPCTL (Homo sapiens (Human), UniProt Q9NXS2)
Assay: QPCTL Enzymatic Activity Assay (coupled-enzyme fluorescent assay, H-Gln-AMC substrate)
Format: biochemical
Conditions: recombinant truncated human QPCTL 10-12 nM, 10 μM H-Gln-AMC; read-out: QPCTL Inhibition IC50
Sequence (Q9NXS2 53-382): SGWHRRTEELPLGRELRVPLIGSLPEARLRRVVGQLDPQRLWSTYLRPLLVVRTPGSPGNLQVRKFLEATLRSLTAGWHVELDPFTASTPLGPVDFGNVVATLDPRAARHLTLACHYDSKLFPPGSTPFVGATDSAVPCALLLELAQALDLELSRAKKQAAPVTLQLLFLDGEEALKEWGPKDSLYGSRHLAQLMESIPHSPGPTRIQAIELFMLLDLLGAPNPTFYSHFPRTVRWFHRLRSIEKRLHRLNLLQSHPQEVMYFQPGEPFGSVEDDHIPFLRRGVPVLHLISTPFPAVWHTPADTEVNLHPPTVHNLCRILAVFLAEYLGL

GIVEN SMILES: Cn1cnnc1C1CCN(c2c(C#N)cccc2-c2cnccc2O)CC1
MEASURED ON: QPCTL (Homo sapiens (Human), UniProt Q9NXS2)
IC50: 1 to 10 µM
--
GIVEN SMILES: Cn1cnnc1C1CCN(c2c(C#N)cccc2-c2cncc3c2OCCN3CCO)CC1
MEASURED ON: QPCTL (Homo sapiens (Human), UniProt Q9NXS2)
IC50: 0.1 to 1 µM
--
GIVEN SMILES: CN1CCN(c2ccc(-c3ccc(F)nc3)c(N3CCC(c4nncn4C)CC3)c2C#N)CC1
MEASURED ON: QPCTL (Homo sapiens (Human), UniProt Q9NXS2)
IC50: < 0.1 µM
--
GIVEN SMILES: Cn1cnnc1C1CCN(c2c(C#N)cccc2-c2ccc3[nH]nc(O)c3c2)CC1
MEASURED ON: QPCTL (Homo sapiens (Human), UniProt Q9NXS2)
IC50: < 0.1 µM
--
GIVEN SMILES: Cn1cnnc1C1CCN(c2c(C#N)cccc2-c2cccc(B(O)O)c2)CC1
MEASURED ON: QPCTL (Homo sapiens (Human), UniProt Q9NXS2)
IC50: < 0.1 µM
--
GIVEN SMILES: COc1ccncc1-c1cccc(C#N)c1N1CCC(c2cnc(N)s2)CC1
MEASURED ON: QPCTL (Homo sapiens (Human), UniProt Q9NXS2)
IC50: 0.1 to 1 µM
